Parameter IC50, tested on UniProt:O60674, listed per item.
Sequence (O60674 849-1124 limits assumed): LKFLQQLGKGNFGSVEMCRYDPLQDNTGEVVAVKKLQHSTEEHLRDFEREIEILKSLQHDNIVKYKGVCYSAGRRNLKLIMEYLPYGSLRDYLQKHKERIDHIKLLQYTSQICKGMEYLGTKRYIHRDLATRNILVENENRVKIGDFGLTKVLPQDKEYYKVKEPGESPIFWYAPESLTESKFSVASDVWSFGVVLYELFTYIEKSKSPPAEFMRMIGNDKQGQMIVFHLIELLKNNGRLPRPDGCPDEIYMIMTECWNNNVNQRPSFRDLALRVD
Quantity measured: IC50

Molecule smiles | Value measured
Nc1ccc(Sc2ccnc(Nc3ccc(N4CCOCC4)cc3)n2)cc1 | < 0.5 µM
CC#CC(=O)Nc1cccc(Nc2nccc(SC)n2)c1 | > 1 µM
Cc1cnc(Nc2ccc(N3CCOCC3)cc2)nc1Sc1ccc(CO)cc1 | < 0.5 µM
C=CC(=O)Nc1ccc(Nc2nccc(SC)n2)cc1 | > 1 µM
NCc1cccc(Sc2ccnc(Nc3ccc(N4CCOCC4)cc3)n2)c1 | < 1 µM
C=CC(=O)Nc1ccc(Sc2ccnc(Nc3ccccc3O)n2)cc1 | > 1 µM
CCC(=O)Nc1ccc(Sc2nc(Nc3ccc(N4CCOCC4)cc3)ncc2Cl)cc1 | > 1 µM
CCOC(=O)/C=C/C(=O)Nc1ccc(Sc2nc(Nc3ccc(N4CCOCC4)cc3)ncc2C)cc1 | > 1 µM
C=CC(=O)Nc1ccc(Sc2ccnc(Nc3ccccc3)n2)cc1 | > 1 µM

All values here come from patent US8846704B2.
